# ASSAY SYSTEM: T1, hCD112R mFC recombinant protein (human; murine, UniProt Q6DKI7 41-160)
# T1 construct: range 41-160; expressed in 293E cells; also called hCD112R ECD mFC; hCD112R-ECD-mFC; not shown: murine IgG2a Fc domain (MX2-mFc vector)
# T1 sequence (looked up): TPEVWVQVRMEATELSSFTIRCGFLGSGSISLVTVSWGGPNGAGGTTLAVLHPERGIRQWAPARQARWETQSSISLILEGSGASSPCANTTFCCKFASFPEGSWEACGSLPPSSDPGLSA
# ASSAY OVERVIEW: ELISA, coated hCD112R-ECD-mFC
The binders listed here are annotated with their EC50.
Just the number in ng/mL, nothing appended.

Consider the reported EC50 for these binders:
Looking for the measured EC50 of Hu10 (antibody, IgG4, V domains shown, humanized IgG4) VH: EVQLVESGGGLVKPGGSLRLSCAASGFTFSSYHMSWVRQAPGKGLELVSAINSNDINTYYLDTVKGRFTISRDIAKNSLYLQMNSLRAEDTAVYYCARHEDYYGFAMDYWGQGTLVTVSS VL: DIVMTQSPDSLAVSLGERATINCKASQSVSNDVAWYQQKPGQPPKLLIYYVSHRFTGVPDRFSGSGSGTDFTLTISSLQAEDVAVYFCHQAYRSPWTFGQGTKLEIK , can you help?
2.57

# get_value(readout='EC50', item= Hu31 (antibody, IgG4, V domains shown, humanized IgG4) VH: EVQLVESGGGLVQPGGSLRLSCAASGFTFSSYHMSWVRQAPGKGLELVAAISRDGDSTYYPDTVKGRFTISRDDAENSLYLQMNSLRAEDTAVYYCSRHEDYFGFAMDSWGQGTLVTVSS VL: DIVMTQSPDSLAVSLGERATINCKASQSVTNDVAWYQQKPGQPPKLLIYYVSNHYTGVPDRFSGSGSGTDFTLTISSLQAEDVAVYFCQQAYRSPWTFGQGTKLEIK )
3.39

New cases:
Recorded EC50 of Hu2 (antibody, IgG4, V domains shown, humanized IgG4; also called Hu-02) VH: EVQLVESGGGLVQPGGSLRLSCAASGFTFSSYHMSWVRQAPGKGLELVAAINSNDINTYYLDTVKGRFTISRDIAKNSLYLQMNSLRAEDTAVYYCARHEDYYGFAMDYWGQGTLVTVSS VL: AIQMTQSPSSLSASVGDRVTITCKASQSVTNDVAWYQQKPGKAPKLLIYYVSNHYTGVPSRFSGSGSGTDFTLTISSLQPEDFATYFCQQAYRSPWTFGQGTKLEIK , please.
3.03
